Cited source: PubChem BioAssay

Test: binders of probe aFGF10 on microarray, primary screen, stem cell growth factor project, biochemical, small-molecule microarray, fluorescence 635/667 (AID 1071);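 note: score merges 667 nm spot intensity and signal to noise from triplicate slides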
Conditions: higher = more signal
In this section, each of the compounds is paired with its reported composite z-score.
Answer as a number with no unit attached.

The cases that follow already have their composite z-score on record.
[
  {
    "Smiles Structure": "COc1ccc(-c2cc3c(c(-c4ccccc4)n2)[Si](C(C)C)(C(C)C)O[C@H]3c2ccccc2)cn1",
    "composite z-score": 0.144
  },
  {
    "Smiles Structure": "COc1ccc(CCN2C(=O)[C@@]3(c4ccc([N+](=O)[O-])cc4)CC(=O)N(CC45CC6CC(CC(C6)C4)C5)[C@@H]3c3ccc(CO)cc32)cc1",
    "composite z-score": 0.142
  },
  {
    "Smiles Structure": "COCCOC(=O)N1C(=O)[C@@]2(c3cc(C#CC4(O)CCCCCC4)ccc31)[C@H](C(=O)N1CCCCCCC1)[C@H]1C(=O)O[C@H](c3ccccc3)[C@H](c3ccccc3)N1[C@@H]2c1ccc(O)cc1",
    "composite z-score": 0.345
  },
  {
    "Smiles Structure": "CO[C@H]1COC(=O)CC=C[C@H](C)[C@@H](OC)COC(=O)CC=C[C@@H]1C",
    "composite z-score": 0.227
  },
  {
    "Smiles Structure": "CCCCCCc1nc(C2CC2)c(C)c2c1[Si](C(C)C)(C(C)C)OC2",
    "composite z-score": -0.588
  },
  {
    "Smiles Structure": "O=C/C=C/c1ccccc1Cl",
    "composite z-score": -0.0502
  },
  {
    "Smiles Structure": "C=CCc1cccc([C@H]2N[C@H](C(=O)O)CC[C@@H]2C)c1",
    "composite z-score": 0.502
  }
]

Read the next record carefully.
// composite z-score lookup, compound = CCCC[C@@H]1C[C@H]1[C@@H](NC(=O)c1cccs1)c1ccc(Cl)cc1 , result: -0.543

----------
Test system: Wnt5a (protein binding on small-molecule microarray)
Assay: Wnt5a binders on small-molecule microarray, primary screen, biophysical, 635/667 nm fluorescence (AID 1142);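 note: fluorescence read at 667 nm with signal to noise per printed feature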
Conditions: 635 nm fluorescence, higher = more signal
In this section, each of the molecules is paired with its reported composite z-score.
Answer as a number with no unit attached.

[
  {
    "Molecule": "CC(C)C[C@@H]1NC(=O)[C@H](CC(C)C)NC(=O)[C@@]23C(=O)N[C@@H](Cc4ccccc4)C2[C@H](C)[C@@]2(C)O[C@H]2C3/C=C/CC/C=C/CNC1=O (stereo partly drawn)",
    "composite z-score": -0.048
  },
  {
    "Molecule": "COCCOC(=O)N1C(=O)[C@@]2(c3cc(C#CCNC(N)=O)ccc31)[C@H](c1ccc(OCCO)cc1)N1[C@H](c3ccccc3)[C@H](c3ccccc3)OC(=O)[C@H]1[C@@H]2C(=O)Nc1nc2ccccc2s1",
    "composite z-score": 0.483
  }
]

// composite z-score lookup, molecule = C=CCc1cccc([C@H]2N[C@H](C(=O)O)CC[C@@H]2C)c1 , result: 0.023

----------
Test system: XIP peptide (Xip251-270)
Assay: small-molecule binders of XIP peptide, primary screen, biochemical, small-molecule microarray, fluorescence 635/667 nm, 0.5 µg/mL protein (AID 1183)
Conditions: small-molecule microarray binding, fluorescence 635 nm; higher = more signal
Measure: composite z-score

[
  {
    "Compound": "C=CCOC(=O)[C@@H]1[C@H]2C(=O)O[C@H](c3ccccc3)[C@H](c3ccccc3)N2[C@H](c2ccc(OCCOC(=O)[C@H]3C[C@H]4C(=O)N[C@@H](CCCCNC(C)=O)C(=O)N4[C@H]3c3ccc(O)cc3)cc2)[C@@]12C(=O)Nc1ccc(I)cc12",
    "composite z-score": 0.566
  }
]

// composite z-score lookup, compound = COC(=O)C1=CC(c2ccc(CO)cc2)=CC(C2CC2)N(Cc2sc3ccccc3c2Cl)C=C1C(=O)OC (configuration not stated) , result: 0.889

// composite z-score lookup, compound = NC(=O)NCC#Cc1ccc2c(c1)[C@]1(C(=O)N2)[C@H](C(=O)N2CCCCCCC2)[C@H]2C(=O)O[C@H](c3ccccc3)[C@H](c3ccccc3)N2[C@@H]1c1ccccc1OCCO , result: 0.486

// composite z-score lookup, compound = CC(C)[Si](OCCCNS(=O)(=O)c1ccc(Br)cc1)(C(C)C)C(C)C , result: 0.195

// composite z-score lookup, compound = CO[C@H]1COC(=O)CC=C[C@H](C)[C@@H](OC)COC(=O)CC=C[C@@H]1C , result: 0.695

// composite z-score lookup, compound = CCOC(=O)C1=CCC(c2cccc3ccccc23)N(S(=O)(=O)c2ccc(C)cc2)C1 (configuration not stated) , result: 0.449

// composite z-score lookup, compound = COCCOC(=O)N1C(=O)[C@@]2(c3cc(C#CCCO)ccc31)[C@H](C(=O)N1CCCCCCC1)[C@H]1C(=O)O[C@H](c3ccccc3)[C@H](c3ccccc3)N1[C@@H]2c1ccc(O)cc1 , result: 0.63

// composite z-score lookup, compound = COCCCNC(=O)[C@@]1(Sc2ccc(C)cc2)CC(=O)N(Cc2cc(C(F)(F)F)cc(C(F)(F)F)c2)[C@@H]1c1ccc(CO)cc1I , result: -0.413

// composite z-score lookup, compound = C=CCOC(=O)[C@@H]1[C@H]2C(=O)O[C@H](c3ccccc3)[C@H](c3ccccc3)N2[C@H](c2ccc(OCCOC(=O)[C@H]3C[C@H]4C(=O)N5CCC[C@H]5C(=O)N4[C@H]3c3ccc(O)cc3)cc2)[C@@]12C(=O)Nc1ccccc12 , result: 0.804

// composite z-score lookup, compound = COCCOC(=O)N1C(=O)[C@@]2(c3cc(C#CC4=CCCCC4)ccc31)[C@H](C(=O)NC[C@H](O)c1ccccc1)[C@H]1C(=O)O[C@H](c3ccccc3)[C@H](c3ccccc3)N1[C@@H]2c1ccc(OCCO)cc1 , result: 0.612

// composite z-score lookup, compound = C=CCNC(=O)[C@H]1[C@@H]2C(=O)O[C@@H](c3ccccc3)[C@@H](c3ccccc3)N2[C@@H](c2ccccc2OCCO)[C@]12C(=O)N(C(=O)OCCOC)c1ccc(C#CCNC(N)=O)cc12 , result: 0.822

// composite z-score lookup, compound = CC1CC/C=C\[C@H]2OC34C=CCN(Cn5nnc6ccccc65)C(=O)[C@H]3N(C(C)CO)C(=O)[C@@H]4C2C(=O)O1 (some centres not stated) , result: 0.0783
